test system: short-necked clam (Ruditapes philippinarum); assay: Biological activity of short-necked clam (aqueduct extension score) in aqueous mineral solutions; format: in vivo; conditions: mineral 1.5 w/v %; saccharide 1 w/v %; total of 18 clams, 16 h
Some molecules, each annotated with its measured Judgment score for biological activity.

molecule | Judgment score for biological activity
OC[C@H]1O[C@H](O[C@H]2[C@H](O)[C@@H](O)[C@@H](O[C@H]3[C@H](O)[C@@H](O)[C@@H](O[C@H]4[C@H](O)[C@@H](O)C(O)O[C@@H]4CO)O[C@@H]3CO)O[C@@H]2CO)[C@H](O)[C@@H](O)[C@@H]1O (some centres unmarked) | 16
O=C[C@H](O)[C@@H](O)[C@H](O)[C@H](O)CO | 14
OC[C@H]1O[C@@H]2OC[C@H]3O[C@H](O[C@@H]4[C@@H](O)[C@@H](OC[C@H]5O[C@H](O[C@H]([C@H]2O)[C@@H]1O)[C@H](O)[C@@H](O)[C@@H]5O)O[C@H](CO)[C@H]4O)[C@H](O)[C@@H](O)[C@@H]3O [Cyclic tetrasaccharide, cyclic tetrasaccharide] | 16

Attention now shifts to the item below.
Lab note: `OC[C@H]1O[C@H](O[C@H]2O[C@H](CO)[C@@H](O[C@H]3O[C@H](CO)[C@@H](O[C@H]4O[C@H](CO)[C@@H](O)[C@H](O)[C@H]4O)[C@H](O)[C@H]3O)[C@H](O)[C@H]2O)[C@H](O)[C@@H](O)[C@@H]1O` gave Judgment score for biological activity of 40

====

tested on: short-necked clam (Ruditapes philippinarum); assay: Biological activity of short-necked clam (aqueduct extension score) in aqueous mineral solutions; format: in vivo; conditions: mineral 4.5 w/v %; saccharide 1 w/v %; total of 18 clams, 16 h
measurement-kind: Judgment score for biological activity
The answer should be written as a number, with no unit following it.

The cases that follow already have their Judgment score for biological activity on record.
compound | Judgment score for biological activity
OC[C@H]1O[C@H](O[C@H]2[C@H](O)[C@@H](O)C(O)O[C@@H]2CO)[C@H](O)[C@@H](O)[C@@H]1O (mixture of isomers) [Maltose, maltose] | 25
OC[C@@H](O)[C@@H](O[C@H]1O[C@H](CO)[C@@H](O)[C@H](O)[C@H]1O)[C@H](O)[C@@H](O)CO [Maltitol, maltitol] | 16
OC[C@H]1O[C@H](O[C@H]2O[C@H](CO)[C@@H](O)[C@H](O)[C@H]2O)[C@H](O)[C@@H](O)[C@@H]1O [α,α-Trehalose, α,α-trehalose] | 49

Here is the next item to consider.
# value of Judgment score for biological activity, short-necked clam (Ruditapes philippinarum), item O=C[C@H](O)[C@@H](O)[C@H](O)[C@H](O)CO [D-Glucose, D-glucose] = 24

====

tested on: colbicula (Corbicula leana); test: Biological activity of corbicula (aqueduct extension score) in aqueous mineral solutions; type: in vivo; details: mineral concentration 2.0; saccharide 1 w/v %; total of 18 shellfishes, 16 h
Collected Judgment score of biological activity values appear next to each entry.
Simply state the number, no unit and no words.

molecule | Judgment score of biological activity
OC[C@H]1O[C@H](O[C@H]2[C@H](O)[C@@H](O)C(O)O[C@@H]2CO)[C@H](O)[C@@H](O)[C@@H]1O (mixture of isomers) | 14
OC[C@@H](O)[C@@H](O[C@H]1O[C@H](CO)[C@@H](O)[C@H](O)[C@H]1O)[C@H](O)[C@@H](O)CO | 13
OC[C@H]1O[C@H](O[C@H]2O[C@H](CO)[C@@H](O[C@H]3O[C@H](CO)[C@@H](O[C@H]4O[C@H](CO)[C@@H](O)[C@H](O)[C@H]4O)[C@H](O)[C@H]3O)[C@H](O)[C@H]2O)[C@H](O)[C@@H](O)[C@@H]1O | 37

The recorded Judgment score of biological activity with colbicula (Corbicula leana) for OC[C@H]1O[C@H](O[C@H]2[C@H](O)[C@@H](O)[C@@H](O[C@H]3[C@H](O)[C@@H](O)[C@@H](O[C@H]4[C@H](O)[C@@H](O)C(O)O[C@@H]4CO)O[C@@H]3CO)O[C@@H]2CO)[C@H](O)[C@@H](O)[C@@H]1O (stereo partly shown) was 11
